tested on: T1, 4H605-AA
T1 chain: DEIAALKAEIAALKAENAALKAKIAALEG
experiment notes: two-hybrid library CCmax;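 further: natural log of median RNA to DNA barcode read ratio; higher means stronger binding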
test conditions: mean of both orientations
quantity kind: interaction score

// known answers, use as guide
> print(dat)
                                     binder      quantity.kind  reported.result
1  DKIAALEAKNAALEAKIAALEAEIAALKG [4H2466-AA]  interaction score            -1.38
2   DEIAALEAEIAALEAKIAALKAKNAALKG [4H48-AA]  interaction score            -1.62
3  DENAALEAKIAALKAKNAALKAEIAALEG [4H1401-AA]  interaction score            -1.38
4  DKIAALEAKIAALEAKNAALEAEIAALKG [4H2354-AA]  interaction score            -1.45
5  DEIAALEAKIAALEAKNAALKAKIAALEG [4H317-AA]  interaction score           -0.441

1: DKIAALKAKIAALEAENAALEAKIAALEG [4H2837-AA]
2: DKIAALKAENAALKAEIAALEAEIAALKG [4H2754-AA]
3: DKIAALKAEIAALEAKNAALKAEIAALEG [4H2617-AA]
4: DEIAALKAEIAALEAKNAALEAKIAALKG [4H566-AA]
5: DKNAALKAKIAALKAENAALEAEIAALEG [4H3921-AA]
Please put the entries in order of rising interaction score. Ranked list of labels, please, in the requested order.
2, 5, 4, 1, 3
